Tested on: RXF 393
Assay: NCI tumour cell line growth inhibition, 48 h
The source made the active and inactive calls. No stated cut-off is given here; in the data, active = GI50 up to about 1.1 µM and inactive = higher.
Your answer must be one of the following: T (active), F (inactive)

Use the examples below as a reference point.
{"columns": ["molecule", "assigned label"],
 "data": [
  ["Cc1ccc(C)c2c1CC(Cc1ccccc1C(=O)O)C2=O (stereo unspecified)", "F"],
  ["N=C(N)Nc1ccc(CC(N)C(=O)NCC(=O)C(CC(=O)O)c2ncc(NC(=O)C(F)(F)F)o2)cc1 (stereo unspecified)", "F"],
  ["CCOc1c(/N=N/c2ccccc2Cl)c(-c2ccccc2)nn1C(=S)S", "F"],
  ["COc1cc(/C=C/c2ccc(O)c(OC)c2)cc(OC)c1", "F"],
  ["CCOC(=O)CCC(NC(=O)c1ccc(Nc2cnc3cc(C(F)(F)F)ccc3n2)cc1)C(=O)OCC (stereo unspecified)", "F"]
]}

Dear colleague, could you share the recorded outcome for COc1cc(OC)c(OC)cc1/C=C1\C=Cc2ccccc21 when you have a moment? F

Dear colleague, could you share the recorded outcome for O=C1C(c2ccc([N+](=O)[O-])cc2)=[N+]([O-])c2ccc([N+](=O)[O-])cc21 when you have a moment? F

Dear colleague, could you share the recorded outcome for O=C(Nc1cccc(C(=O)NCCCO)c1)/C(=C/c1ccccc1)NC(=O)c1ccccc1 when you have a moment? F

Dear colleague, could you share the recorded outcome for NCCOc1ccccn1 when you have a moment? F

Dear colleague, could you share the recorded outcome for CCOC(=O)c1ccc2nc3n(c2c1)C(c1c(F)cccc1F)SC3 (stereo unspecified) when you have a moment? F

Dear colleague, could you share the recorded outcome for NC(=O)NC(=O)c1cccc(NC(=O)CF)c1 when you have a moment? F

Dear colleague, could you share the recorded outcome for NC1CCCCC1.O=P(O)(O)C(O)/C=C/c1ccccc1 (stereo unspecified) when you have a moment? F

Dear colleague, could you share the recorded outcome for COc1cc(OC)c2nc(C)c3c(c2c1)NCC3 when you have a moment? F

Dear colleague, could you share the recorded outcome for O=C(O)c1cc2ccccc2c(/N=N\c2cc(C(F)(F)F)ccc2Cl)c1O when you have a moment? F

Dear colleague, could you share the recorded outcome for O=C1C(=O)N(C2C3CC4CC(C3)CC2C4)C(=O)C(=O)C1c1nc2ccccc2o1 (stereo unspecified) when you have a moment? F

Dear colleague, could you share the recorded outcome for c1ccc(/N=C2\c3ccccc3CN2c2ccccn2)nc1 when you have a moment? F

Dear colleague, could you share the recorded outcome for CCOC(=O)c1oc2c(OC)cc(Cl)c3c2c1CCC3 when you have a moment? F

Dear colleague, could you share the recorded outcome for Cc1ccc(C(=O)Nc2ccc(CP(=O)(O)O)cc2CP(=O)(O)O)cc1N when you have a moment? F
